Measure: logP
API doc: respond with a numeric literal and nothing else, no unit.

{"columns": ["Compound", "logP"],
 "data": [
  ["O=C1CN(Cc2ccccc2)C(=O)N1", 0.76],
  ["O=C1NC(=O)N(Cc2ccccc2)C1=O", 1.19],
  ["O=C1NC(=O)C(Cc2ccccc2)S1 (configuration not stated)", 1.98],
  ["O=C1NC(=O)N(c2ccccc2)C1=O", 0.6],
  ["O=C1CC(=O)C(c2ccccc2)O1 (configuration not stated)", 1.47],
  ["O=C1CC(=O)N(Cc2ccccc2)C1", 0.76],
  ["O=C1NC(=O)C(Cc2ccccc2)O1 (configuration not stated)", 1.2],
  ["O=c1[nH]c(=O)n(-c2ccccc2)o1", 1.74],
  ["O=C1NC(=O)C(c2ccccc2)C1=O (configuration not stated)", 2.26],
  ["O=C1CC(=O)C(c2ccccc2)N1 (configuration not stated)", 0.48]
]}

Data request: Consider the compound shown here: `NC(=O)NS(=O)(=O)Cc1ccccc1` What is its recorded logP?
Data returned: 0.24

Data request: Same lookup for O=C1NC(=O)C(Cc2ccccc2)N1 (configuration not stated) , please.
Data returned: 0.6

Data request: Same lookup for O=C1NC(=O)C(c2ccccc2)O1 (configuration not stated) , please.
Data returned: 1.09

Data request: Same lookup for `O=C1CNC(=O)N1c1ccccc1` , please.
Data returned: 0.04

Data request: Same lookup for `O=C1CN(c2ccccc2)C(=O)N1` , please.
Data returned: 0.83

Data request: Same lookup for `NS(=O)(=O)NC(=O)Cc1ccccc1` , please.
Data returned: 0.31

Data request: Same lookup for `O=C1CC(=O)N(c2ccccc2)O1` , please.
Data returned: 0.54
